# TESTED ON: T1, cynomolgus CD47, on CHOK1-cCD47 stable cell line (cynomolgus)
# T1 construct: whole, on cells; check before use; also called CHOK1/cynoCD47; monkey-derived CD47
# TEST SUMMARY: FACS CHOK1-cCD47; Ab 40 nM
Attribute: mean fluorescence intensity
Could you keep your reply to the number by itself?

A selection of reference data follows.
132D1E5 (antibody, V domains shown, Murine hybridoma antibody purified on protein G) VH: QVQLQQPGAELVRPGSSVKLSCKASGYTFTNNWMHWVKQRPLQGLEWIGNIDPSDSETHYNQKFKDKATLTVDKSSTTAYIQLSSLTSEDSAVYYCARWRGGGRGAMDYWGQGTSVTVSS VL: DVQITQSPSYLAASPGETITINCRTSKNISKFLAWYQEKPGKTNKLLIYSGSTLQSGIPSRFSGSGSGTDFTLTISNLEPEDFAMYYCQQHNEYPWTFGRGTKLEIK | 5610
95E2D10 (antibody, V domains shown, Murine hybridoma antibody purified on protein G) VH: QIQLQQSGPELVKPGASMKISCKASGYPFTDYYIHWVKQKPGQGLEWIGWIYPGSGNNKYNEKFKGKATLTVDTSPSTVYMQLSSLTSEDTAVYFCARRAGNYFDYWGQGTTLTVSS VL: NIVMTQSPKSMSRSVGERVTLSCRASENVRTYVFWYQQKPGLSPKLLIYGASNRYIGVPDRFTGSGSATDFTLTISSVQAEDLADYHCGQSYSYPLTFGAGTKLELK | 17500
25E3B5 (antibody, V domains shown, Murine hybridoma antibody purified on protein G) VH: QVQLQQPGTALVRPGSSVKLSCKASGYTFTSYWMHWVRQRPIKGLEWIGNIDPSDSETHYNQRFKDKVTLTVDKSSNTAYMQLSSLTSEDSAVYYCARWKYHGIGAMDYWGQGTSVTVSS VL: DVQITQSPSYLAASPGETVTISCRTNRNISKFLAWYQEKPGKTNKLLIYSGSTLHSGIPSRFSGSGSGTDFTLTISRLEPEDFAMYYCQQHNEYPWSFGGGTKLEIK | 9760

Prompt: Return reported mean fluorescence intensity. Input binder: 51E2F11 (antibody, V domains shown, Murine hybridoma antibody purified on protein G) VH: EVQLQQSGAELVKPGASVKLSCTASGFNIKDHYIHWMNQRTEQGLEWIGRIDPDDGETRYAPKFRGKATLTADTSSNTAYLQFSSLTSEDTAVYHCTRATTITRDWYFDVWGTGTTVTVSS VL: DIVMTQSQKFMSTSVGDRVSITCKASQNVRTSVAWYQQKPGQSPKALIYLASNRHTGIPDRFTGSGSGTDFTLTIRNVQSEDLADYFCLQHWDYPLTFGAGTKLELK
Response: 13300
